Biological target: ULK1 kinase (Homo sapiens)
Sequence (O75385 with tags, fused parts or gaps): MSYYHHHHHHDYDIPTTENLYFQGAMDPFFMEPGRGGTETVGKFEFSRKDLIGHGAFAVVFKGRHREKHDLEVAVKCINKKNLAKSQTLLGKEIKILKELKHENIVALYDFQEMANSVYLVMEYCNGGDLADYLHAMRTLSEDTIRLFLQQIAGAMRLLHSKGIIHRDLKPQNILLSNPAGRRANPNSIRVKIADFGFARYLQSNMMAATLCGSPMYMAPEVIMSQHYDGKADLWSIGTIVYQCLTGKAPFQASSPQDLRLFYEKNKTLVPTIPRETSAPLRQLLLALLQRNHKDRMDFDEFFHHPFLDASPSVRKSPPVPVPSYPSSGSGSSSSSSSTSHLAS
pIC50: −log10 of the molar value.
ASSAY_READOUT: pIC50

Requested read-out pIC50, target or system ULK1 kinase (Homo sapiens), entry "CN1CCN(c2ccc(Nc3ncc(C(F)(F)F)c(NCCCN4CCCOCC4=O)n3)c(C3CC3)c2)CC1" 7.60 to 9.00

---

Form field: pIC50 (one value per entry).
Tested on: ULK kinase
Test: pATG13 levels of mutant KRas A549 cells after treatment with ULK inhibitors in combination with trametinib (ELISA)
Assay type: cell-based, human
Settings: A549 (KRAS mutant) lung cancer cells, 250 nM trametinib, overnight, pS318-ATG13
Description: Cellular Inhibition of ULK Kinase Substrate ATG13 Protein pATG13 Levels of Mutant KRas A549 Cells after Treatment with ULK Inhibitors in Combination with Trametinib […] Plate wells were washed with ELISA wash buffer. […] The plate was analyzed at on a plate reader measuring absorbance at 450 nm and 540 nm (background). Signal was calculated by first subtracting the background absorbance at 540 nm from the absorbance at 450 nm for each well. […]
pIC50: −log10 of the molar value.

COMPOUND: CCc1cc(N2CCN(C)CC2)ccc1Nc1ncc(C(F)(F)F)c(NCCCN2CCCC2=O)n1
pIC50: 6.22 to 6.52
//
COMPOUND: CCc1cc(N2CCN(C)CC2)ccc1Nc1ncc(C(F)(F)F)c(NCCCN2CCCCC2=O)n1
pIC50: 6.52 to 7.00
//
COMPOUND: CCc1cc(N2C[C@@H]3C[C@H]2CN3C)ccc1Nc1ncc(C(F)(F)F)c(NCCCN2CCCOC2=O)n1
pIC50: 6.52 to 7.00
//
COMPOUND: CCN1CCCN(c2ccc(Nc3ncc(C(F)(F)F)c(NCCCN4CCCCC4=O)n3)cc2)CC1
pIC50: 6.52 to 7.00
//
COMPOUND: CCc1cc(N2CCNCC2)ccc1Nc1ncc(C(F)(F)F)c(NCCCN2CCOCCC2=O)n1
pIC50: 7.00 to 8.00
//
COMPOUND: CC(C)c1cc(N2CCN(C)CC2)ccc1Nc1ncc(C(F)(F)F)c(NCCCN2CCCCC2=O)n1
pIC50: 6.52 to 7.00
//
COMPOUND: CCN1CCN(c2ccc(Nc3ncc(C(F)(F)F)c(NCCCN4CCCCC4=O)n3)c(C(C)C)c2)CC1
pIC50: 6.52 to 7.00
//
COMPOUND: CN1CCN(c2ccc(Nc3ncc(C(F)(F)F)c(NCCCN4CCOCCC4=O)n3)c(Cl)c2)CC1
pIC50: 6.52 to 7.00

Look up pIC50: "Cc1cc(-c2cn(C)cn2)ccc1Nc1ncc(C(F)(F)F)c(NCCCN2CCOCCC2=O)n1" < 6.22

Request: "CN1CCN(c2ccc(Nc3ncc(C(F)(F)F)c(NCCCN4CCCOCC4=O)n3)c(C3CC3)c2)CC1" 7.00 to 8.00

Now this one: "CCc1cc(N2C[C@H]3C[C@@H]2CN3C)ccc1Nc1ncc(C(F)(F)F)c(NCCCN2CCCOC2=O)n1" 7.00 to 8.00

Next compound: "CN1C2CCC1CN(c1ccc(Nc3ncc(C(F)(F)F)c(NCCCN4CCCCC4=O)n3)c(C3CC3)c1)C2" 6.22 to 6.52

Try this compound too: "CCc1cc(N2C[C@@H]3C[C@H]2CN3C)ccc1Nc1ncc(C(F)(F)F)c(NCCCN2CCOCCC2=O)n1" 6.52 to 7.00

Same for "CN1CCN(c2ccc(Nc3ncc(Br)c(NCCCN4CCCCC4=O)n3)c(C3CC3)c2)CC1" 6.52 to 7.00

---

Recorded measurements of IC50, one per entry
Molecular target: ULK1 kinase (Homo sapiens, UniProt O75385, E37A/K38A)
Assay: Biochemical assay for ULK1.3 (coupled pyruvate kinase/lactate dehydrogenase assay, peptide substrate)
Conditions: 0.1 nM ULK1 (residues 1-283), 1 mM ATP

Solved cases (4 shown):
COMPOUND: CCc1cc(N2CCN(C)CC2)ncc1Nc1ncc(C(F)(F)F)c(NCCCN2CCCOC2=O)n1 [Example 128]
IC50: 1 to 25 nM

COMPOUND: O=C1OCCCN1CCCNc1nc(Nc2ccc(N3CCN4CCC[C@@H]4C3)cc2C2CC2)ncc1C(F)(F)F [Example 42]
IC50: 1 to 25 nM

COMPOUND: CCc1cc(N2CCN(C)CC2)ccc1Nc1ncc(C(F)(F)F)c(NCCCN2CCCOC2=O)n1 [Example 39]
IC50: 1 to 25 nM

COMPOUND: CN1CCN(c2ccc(Nc3ncc(C(F)(F)F)c(NCCCN4CCCCC4=O)n3)c(C3CCCC3)c2)CC1 [Example 113]
IC50: 1 to 25 nM

# next compound below
Item under review: CN1C2CCC1CN(c1ccc(Nc3ncc(C(F)(F)F)c(NCCCN4CCCCC4=O)n3)c(C3CC3)c1)C2 [Example 130] . Reported IC50? 25 to 100 nM

---

pIC50: −log10 of the molar value.
Quick note: these are pIC50 numbers for system: LRRK2 kinase (Homo sapiens)
Sequence (Q5S007 with tags, fused parts or gaps): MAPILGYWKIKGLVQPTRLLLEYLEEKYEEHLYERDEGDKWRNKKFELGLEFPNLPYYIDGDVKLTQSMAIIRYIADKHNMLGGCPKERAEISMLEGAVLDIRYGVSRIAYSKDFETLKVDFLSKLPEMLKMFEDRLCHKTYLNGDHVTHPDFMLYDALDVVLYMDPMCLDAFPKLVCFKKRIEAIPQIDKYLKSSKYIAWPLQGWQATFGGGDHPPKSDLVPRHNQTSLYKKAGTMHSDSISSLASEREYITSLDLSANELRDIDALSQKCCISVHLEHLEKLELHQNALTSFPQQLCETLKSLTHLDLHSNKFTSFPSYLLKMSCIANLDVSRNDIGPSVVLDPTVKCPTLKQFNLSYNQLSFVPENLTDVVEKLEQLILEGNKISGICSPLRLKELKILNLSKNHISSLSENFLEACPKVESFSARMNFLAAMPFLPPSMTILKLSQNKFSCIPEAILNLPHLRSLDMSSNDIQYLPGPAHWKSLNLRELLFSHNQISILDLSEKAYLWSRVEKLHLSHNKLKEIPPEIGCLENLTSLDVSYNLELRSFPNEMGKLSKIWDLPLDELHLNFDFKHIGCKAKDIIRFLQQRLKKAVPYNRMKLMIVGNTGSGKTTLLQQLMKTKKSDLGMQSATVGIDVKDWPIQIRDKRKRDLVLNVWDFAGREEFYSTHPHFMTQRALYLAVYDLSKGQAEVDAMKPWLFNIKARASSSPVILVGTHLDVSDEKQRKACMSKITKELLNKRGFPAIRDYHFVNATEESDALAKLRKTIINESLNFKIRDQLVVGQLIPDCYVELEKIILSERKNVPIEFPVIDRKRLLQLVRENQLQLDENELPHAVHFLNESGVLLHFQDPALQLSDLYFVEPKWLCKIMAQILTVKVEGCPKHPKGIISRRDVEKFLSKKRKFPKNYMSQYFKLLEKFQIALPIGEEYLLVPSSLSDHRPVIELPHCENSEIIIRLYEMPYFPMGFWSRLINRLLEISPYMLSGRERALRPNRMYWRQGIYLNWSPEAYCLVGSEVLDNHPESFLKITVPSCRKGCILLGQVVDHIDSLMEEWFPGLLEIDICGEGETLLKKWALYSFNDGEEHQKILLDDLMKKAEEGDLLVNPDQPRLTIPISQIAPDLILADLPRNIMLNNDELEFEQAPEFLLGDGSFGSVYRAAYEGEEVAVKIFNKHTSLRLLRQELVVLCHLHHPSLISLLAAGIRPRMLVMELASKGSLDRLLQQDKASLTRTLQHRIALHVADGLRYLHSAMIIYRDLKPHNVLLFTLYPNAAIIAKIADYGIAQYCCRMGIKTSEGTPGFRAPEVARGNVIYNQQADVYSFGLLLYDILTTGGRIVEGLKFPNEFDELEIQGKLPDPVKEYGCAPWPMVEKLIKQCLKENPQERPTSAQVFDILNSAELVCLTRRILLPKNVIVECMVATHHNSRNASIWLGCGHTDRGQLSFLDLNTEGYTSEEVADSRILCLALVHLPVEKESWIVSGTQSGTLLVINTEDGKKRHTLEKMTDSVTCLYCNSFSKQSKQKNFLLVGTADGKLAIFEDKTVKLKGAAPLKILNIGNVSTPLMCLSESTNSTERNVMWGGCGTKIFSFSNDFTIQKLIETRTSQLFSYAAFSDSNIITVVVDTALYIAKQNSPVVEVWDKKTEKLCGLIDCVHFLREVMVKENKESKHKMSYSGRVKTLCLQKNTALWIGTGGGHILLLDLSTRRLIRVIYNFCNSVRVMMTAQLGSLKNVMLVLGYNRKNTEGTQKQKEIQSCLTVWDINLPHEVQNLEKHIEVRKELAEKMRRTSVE

COMPOUND: CCc1cc(N2CCN(C)CC2)ccc1Nc1cc(NCCCN2CCOCCC2=O)c(C(F)(F)F)cn1
MEASURED_TARGET: LRRK2 kinase (Homo sapiens)
ENDPOINT_RESULT: < 6.22
--
COMPOUND: CC(C)c1cc(N2CCN(C)CC2)ccc1Nc1ncc(Br)c(NCCCN2CCOCCC2=O)n1
MEASURED_TARGET: LRRK2 kinase (Homo sapiens)
ENDPOINT_RESULT: 6.22 to 6.52
--
COMPOUND: CCc1cc(N2CCN(C)CC2)ccc1Nc1ncc(C2CC2)c(NCCCN2CCCOCC2=O)n1
MEASURED_TARGET: LRRK2 kinase (Homo sapiens)
ENDPOINT_RESULT: < 6.22

Item under review: "CCc1cc(N2CCN(C)CC2)ccc1Nc1ncc(Cl)c(NCCCN2CCCOCC2=O)n1" . Reported pIC50? 6.52 to 7.00

What about this compound? "CN1CCN(c2ccc(Nc3ncc(C(F)(F)F)c(NCCCN4CCCCC4=O)n3)c(C3CC3)c2)CC1" 7.00 to 9.00

Follow-up entry: "CN1CCN(c2ccc(Nc3ncc(C(F)(F)F)c(NCCCN4CCC(C)(C)OC4=O)n3)c(C3CC3)c2)CC1" 6.52 to 7.00

Thanks! And "CCc1cc(N2CC3CCC(C2)N3C)ccc1Nc1ncc(C(F)(F)F)c(NCCCN2CCOCCC2=O)n1" ? 6.22 to 6.52

Item: "CN1CCN(c2ccc(Nc3ncc(C(F)(F)F)c(NCCCN4CCOCC4=O)n3)c(C3CC3)c2)CC1" 6.52 to 7.00

Now try "CCc1cc(N2CCN(C)C(=O)C2)ccc1Nc1ncc(C(F)(F)F)c(NCCCN2CCCOC2=O)n1" . 7.00 to 9.00

Check "CN(C)C1CN(c2ccc(Nc3ncc(C(F)(F)F)c(NCCCN4CCCCC4=O)n3)c(C3CC3)c2)C1" too. 7.00 to 9.00

Repeat with "Cc1cc(-c2cnn(C)c2)ccc1Nc1ncc(C(F)(F)F)c(NCCCN2CCCCC2=O)n1" 7.00 to 9.00

Similarly, "CN1C[C@H]2C[C@@H]1CN2c1ccc(Nc2ncc(C(F)(F)F)c(NCCCN3CCOCCC3=O)n2)c(C2CC2)c1" ? 7.00 to 9.00

---

IC50 by entry:
Molecular target: ULK2 kinase (Homo sapiens)
Sequence (Q8IYT8 with tags, fused parts or gaps): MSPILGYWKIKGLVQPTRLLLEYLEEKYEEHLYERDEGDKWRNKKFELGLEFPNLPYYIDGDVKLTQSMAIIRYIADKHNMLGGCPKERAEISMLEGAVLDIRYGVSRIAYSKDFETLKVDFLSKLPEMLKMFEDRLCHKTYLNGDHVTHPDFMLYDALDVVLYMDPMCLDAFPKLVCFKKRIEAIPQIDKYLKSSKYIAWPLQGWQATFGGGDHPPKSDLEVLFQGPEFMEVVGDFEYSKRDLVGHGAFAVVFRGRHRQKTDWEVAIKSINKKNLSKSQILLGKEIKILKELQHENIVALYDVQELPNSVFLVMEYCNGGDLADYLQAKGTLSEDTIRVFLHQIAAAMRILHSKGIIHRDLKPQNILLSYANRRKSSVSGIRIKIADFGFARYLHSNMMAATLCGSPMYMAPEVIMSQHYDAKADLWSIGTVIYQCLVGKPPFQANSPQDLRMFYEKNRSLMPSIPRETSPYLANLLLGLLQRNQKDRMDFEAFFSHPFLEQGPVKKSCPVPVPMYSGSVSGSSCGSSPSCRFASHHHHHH

COMPOUND: CN1CCN(c2ccc(Nc3ncc(C(F)(F)F)c(NCCCN4CCCCC4=O)n3)c(C3CC3)c2)CC1 [Example 14]
ENDPOINT_RESULT: 1 to 25 nM
//
COMPOUND: Cc1cc(N2CCOCC2)ncc1Nc1cc(NCCCN2CCCCC2=O)c(C(F)(F)F)cn1 [Example 96]
ENDPOINT_RESULT: > 500 nM
//
COMPOUND: O=C1CCOCCN1CCCNc1nc(Nc2ccc(N3CCOCC3)cc2C2CC2)ncc1C(F)(F)F [Example 71]
ENDPOINT_RESULT: > 500 nM
//
COMPOUND: CCc1cc(N2CC3CCC(C2)N3C)ccc1Nc1ncc(C(F)(F)F)c(NCCCN2CCOCCC2=O)n1 [Example 74]
ENDPOINT_RESULT: 1 to 25 nM

// next entry
Request the reported IC50 associated with Cc1cc(-c2cnn(C)c2)ccc1Nc1ncc(C(F)(F)F)c(NCCCN2CCCCC2=O)n1 [Example 108] > 500 nM
